B1: PhoQ; a variant is named by its letters at X, in order, P23837 (parent)
chain: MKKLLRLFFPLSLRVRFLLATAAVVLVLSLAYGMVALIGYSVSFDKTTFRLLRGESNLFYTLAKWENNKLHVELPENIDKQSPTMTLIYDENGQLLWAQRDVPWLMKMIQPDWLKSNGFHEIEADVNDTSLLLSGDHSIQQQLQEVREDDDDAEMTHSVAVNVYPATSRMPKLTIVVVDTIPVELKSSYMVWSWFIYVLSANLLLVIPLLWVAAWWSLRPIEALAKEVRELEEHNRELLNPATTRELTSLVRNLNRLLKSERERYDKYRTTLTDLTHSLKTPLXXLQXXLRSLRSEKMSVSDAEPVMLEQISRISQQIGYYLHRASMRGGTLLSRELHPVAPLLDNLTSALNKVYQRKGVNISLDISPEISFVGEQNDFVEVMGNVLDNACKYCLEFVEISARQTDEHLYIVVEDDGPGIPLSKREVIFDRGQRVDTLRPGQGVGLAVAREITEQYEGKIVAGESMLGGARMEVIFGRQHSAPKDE

- Variants of: B1
- Test details: enrichment ratio after two sorts for PhoP signalling (ratio (wild type AVST 3.29)); higher = more functional
- Assay setup: with PhoP (E. coli)
In all, about 140,000 sequences were measured (“enrichment ratio after two sorts for PhoP signalling”: median about 0, highest 2% from about 11 on). Only a selection was taken, and the highest values are over-represented in it overall.
Outcome measure: enrichment ratio

{"Var": "FSNL", "Censoring qualifier": "≤", "Endpoint value": 0.25}
{"Var": "GDIV", "Censoring qualifier": "=", "Endpoint value": 8.68}
{"Var": "TSNL", "Censoring qualifier": "=", "Endpoint value": 12.5}
{"Var": "LTVI", "Censoring qualifier": "≤", "Endpoint value": 0.25}
{"Var": "GDTV", "Censoring qualifier": "=", "Endpoint value": 13.7}
{"Var": "FDVI", "Censoring qualifier": "≤", "Endpoint value": 0.25}
{"Var": "GDDV", "Censoring qualifier": "≤", "Endpoint value": 0.25}
{"Var": "YDYH", "Censoring qualifier": "≤", "Endpoint value": 0.25}
{"Var": "GDVM", "Censoring qualifier": "=", "Endpoint value": 28.9}
{"Var": "RWVH", "Censoring qualifier": "≤", "Endpoint value": 0.25}
{"Var": "TDVI", "Censoring qualifier": "=", "Endpoint value": 11.8}
